Consider the following molecules and their measured fold change readings.
- procedureText: activators of NF-kB expression in neurons, primary screen, cell-based, HTS (AID 1239)
- experimentalSetup: human neuronal cells, NF-kB reporter expression; at 12.5 µM; hits give high values
The whole screen tested about 190,000 compounds, of which about 3,100 (1.6%) were called active. This is one part of a sample in which actives are shown more often than they occur.
No unit in the answer, only the number.

Observe how each entry below is paired with its result.
INSERT INTO measurements (molecule, endpointresult) VALUES
  ('Cc1ccc(N=Cc2c(O)n(-c3nccs3)c(=O)c3ccccc23)c(C)c1', 1.01),
  ('COc1cccc(/C=C/C(=O)Nc2ccc3c(c2)OCCO3)c1', 6.74),
  ('COc1ccc(NC(C)=O)cc1NC(=O)CN1CCN(c2ccccn2)CC1', 1.04),
  ('Cc1cccc2c(=O)n3c(nc12)CCCCC3', 1.11),
  ('CC(NC(=O)Nc1ccc2c(c1)OCO2)c1ccncc1 (stereo not drawn)', 1.61);

Any idea what fold change was measured for "CCc1c(C)sc(NC(=O)/C=C/c2ccc3c(c2)OCO3)c1C(=O)OC" ?
1.05

Using the record for O=C(Nc1ccc2c(c1)OCCO2)C1CCCN(c2ncccn2)C1 (stereo not drawn) , report its fold change.
4.28

# query: fold change of entry "CCCNS(=O)(=O)c1ccc(CCC(=O)N2CCCC2)cc1"
1.25

Record request: fold change value, item "COc1ccc(OCCCC(=O)NCCc2ccccc2)cc1"
1.08

Which fold change is reported for this molecule? "CCN(CC(=O)NCc1cccs1)C(=O)c1ccccc1F"
1.01

Report fold change for "Cc1cccc(-n2c(O)c(C=Nc3ccccc3N)c(=O)[nH]c2=O)c1" please.
4.16

Can you look up the measured fold change of "C=CCN(C(=O)c1cc(C)cc(C)c1)C1(C(=O)Nc2ccccc2)CCN(C(C)C)CC1" for me?
0.87

Report fold change for "O=C(Nc1ccccc1)c1cc2ccccc2[nH]1" please.
3.43

---

- procedureText: activators of NF-kB expression in neurons, primary screen, cell-based, HTS (AID 1239)
- experimentalSetup: human neuronal cells, NF-kB reporter expression; at 12.5 µM; hits give high values
About 3,100 (1.6%) of roughly 190,000 compounds were called active. What follows is part of a selection rich in actives, with near analogues and random picks from the rest.
Entry flag: Yes if fold change reaches 0.9; No if it does not.

Solved cases (5 shown):
INSERT INTO assay_data (compound, classassignment) VALUES
  ('COc1ccccc1Cn1c(C)nnc1-c1cnn(C)c1N', 'Yes'),
  ('CCOc1ccc2nc(Nc3nc4ccc(NC(C)=O)cc4s3)sc2c1', 'No'),
  ('O=C(NCc1cccnc1)c1cccc(-c2cc3ccccc3oc2=O)c1', 'Yes'),
  ('O=c1oc2ccccc2cc1-c1cn(-c2ccccc2)c(=S)[nH]1', 'No'),
  ('CCOc1ccc2nc(SC(CC)C(=O)Nc3cc(C)on3)sc2c1 (stereo unspecified)', 'Yes');

API: the following record is the query input.
Record "CCC(C)(C)c1ccc(OCC(=O)N(C)C)c(C(C)(C)CC)c1" ; criterion: fold change no lower than 0.9. Met?
No

---

Recorded fold change values for a group of molecules are listed next.
- procedureText: activators of NF-kB expression in neurons, primary screen, cell-based, HTS (AID 1239)
- experimentalSetup: human neuronal cells, NF-kB reporter expression; at 12.5 µM; hits give high values
About 3,100 (1.6%) of roughly 190,000 compounds were called active. Shown is part of a subset that was picked to be rich in actives.

Example entries and their recorded answers appear below.
INSERT INTO assay_data (molecule, measuredmetric, endpointresult) VALUES
  ('CCn1c(SCc2ccc(C)cc2)nnc1-c1nn(-c2ccccc2)ccc1=O', 'fold change', '1.19 (inactive)'),
  ('O=C(CCc1nnc(CCCCc2ccccc2)o1)NC(c1cccnc1)C(F)(F)F (stereo not given)', 'fold change', '0.86 (inactive)'),
  ('CCOc1nc(-c2ccc(OC)cc2)ccc1-c1noc(-c2cc(OC)c(OC)c(OC)c2)n1', 'fold change', '1.01 (inactive)'),
  ('O=C(O)CCn1c(SCc2cc(=O)n3ccccc3n2)nc2ccsc2c1=O', 'fold change', '1.78 (inactive)');

Reported fold change for "Cc1ccnc(NC(=O)c2ccc(Cl)c([N+](=O)[O-])c2)c1" : what is it?
2.09 (inactive)

I have this molecule here, "CC(C)(C)OC(=O)N/N=C/c1cn(-c2ccccc2)nc1-c1cccnc1" , and I need its recorded fold change.
0.46 (inactive)

---

- procedureText: activators of NF-kB expression in neurons, primary screen, cell-based, HTS (AID 1239)
- experimentalSetup: human neuronal cells, NF-kB reporter expression; at 12.5 µM; hits give high values
Among all 190,000 compounds or so, about 3,100 (1.6%) were called active. What follows is part of a selection rich in actives, with near analogues and random picks from the rest.
The following compounds are listed with their measured fold change values.
Write the number on its own, no unit after it.

INSERT INTO assay_data (compound, endpointresult) VALUES
  ('CCN(CC)CCNc1nc(-c2ccc(OC(F)F)cc2)c(C)s1', 0.94);

Any idea what its fold change is? The compound is "Cc1cc(NC(=O)CSc2nc3ccccc3n2CC(C)C)no1"
1.74

Quick check: fold change of "CCCCCC(=O)Nc1ccc2oc(-c3ccncc3)nc2c1" ?
0.96

What does the record list as fold change for "O=C(CSc1ccccc1)Nc1ccc(NC(=O)c2ccco2)cc1" ?
1.45

Give the measured fold change of CCOC(=O)/C(=N\Nc1ccccc1Cl)N(C)C1CCS(=O)(=O)C1 (stereo not drawn) .
0.99

If you can, please state the reported fold change value of "Clc1ccc2nc(CSc3ccccc3)cn2c1" .
3.83

Name the recorded fold change for "COc1ccc(/C=N/NC(=O)Cn2cc(C(F)(F)F)ccc2=O)cc1" .
1.07

Which measured fold change value corresponds to "O=C(CN1CCOCC1)Nc1ccc(NC(=O)CN2CCOCC2)c(Cl)c1" ?
1.01

Can you share its fold change? I mean this compound: CC(C(=O)O)n1cnc2sc3c(c2c1=O)CCCC3 (stereo not drawn)
1.12

Recorded fold change of CN(C)c1ccc(C2Nc3ccccc3C(=O)N2NS(=O)(=O)c2ccccc2)cc1 (stereo not drawn) , please.
0.87

Query: fold change; subject: "COc1cccc(C(=O)Nc2ccc(N3CCCC3)cc2)c1"
3.3

Please report the recorded fold change for "O=C(NC(=S)Nc1cccc(-c2ccc(CO)o2)c1)c1cccs1" .
10.1

Entry "C/C(=N/OC(=O)c1cccc(C(F)(F)F)c1)c1cnccn1" has what fold change?
1.18

Reported fold change for "Brc1ccc(-c2nnc(-c3ccccc3)o2)o1" : what is it?
3.89

Recorded fold change for "C/C(=N\NC(=O)c1ccccc1C)c1ccc(N2CCOCC2)cc1" , please?
1.09

What does the data say about its fold change? Entry: "CC1=NCCN1S(=O)(=O)c1cccc([N+](=O)[O-])c1"
1.03

Would you mind telling me what fold change value was observed for "CN(C)c1ccnc2sc3c(=O)n(Cc4ccccc4)cnc3c12" ?
0.86

Which fold change is listed for "O=c1cc(CSc2ccc(Cl)cc2)nc(N2CCOCC2)[nH]1" ?
1.5

Give its fold change value. Item: "CCOc1ncccc1C(=O)OCc1cn2cc(Cl)ccc2n1"
1.18

Tell me the measured fold change of "O=C(CSCc1ccccc1)N1CCc2ccccc21" , please.
5.86

Which measured fold change value corresponds to O=C(Nc1ccc(Cl)cc1)C1c2cccc[n+]2CC(=O)N1Cc1ccc2c(c1)OCO2 (stereo not drawn) ?
1.64

---

- procedureText: activators of NF-kB expression in neurons, primary screen, cell-based, HTS (AID 1239)
- experimentalSetup: human neuronal cells, NF-kB reporter expression; at 12.5 µM
The whole screen tested about 190,000 compounds, of which about 3,100 (1.6%) were called active. Cut-off read from the data, not from the text of the source: active = fold change above about 3.3; inconclusive = no clear call, values can overlap the other calls; inactive = below that. The list comes from a sample in which actives are over-represented; it also holds close analogues and randomly drawn compounds.
A correct response names exactly one class from t for active, f for inactive

Some entries whose results are on file:
INSERT INTO assay_data (molecule, classassignment) VALUES
  ('COc1ccccc1N1CCN(C(=O)c2cc(-c3ccc(Br)cc3)on2)CC1', 'f'),
  ('Cc1ccc(-c2cc(C(=O)N3CCc4ccccc4C3)no2)cc1', 'f'),
  ('CCOC(=O)C1(Cc2ccccc2C(F)(F)F)CCN(C(=O)c2cc(C)n(C)n2)CC1', 'f'),
  ('CCn1c(/C=C/c2ccc([N+](=O)[O-])o2)nc2ccccc2c1=O', 't'),
  ('O=C(Nc1cc2ccccc2oc1=O)C1CCCCC1', 't');

Record request — test call for "C/C(=C\C(=O)c1ccc(Br)cc1)N1CCCCC1"
f

Short answer needed: outcome of this test for "O=C(O)c1ccc(NC(=O)C2CCCCC2)cc1" ?
f

Could you please tell me the result logged for "Cn1cc(/C=C/c2nc3ccccc3c(=O)n2-c2cccc([N+](=O)[O-])c2)c2ccccc21" in this assay?
f

Any idea what this test logged for "CN(C)c1nccc(NCc2ccccc2)c1C#N" ?
f

Outcome? "CC(=O)Nc1cc2ccc(OC(C)=O)cc2oc1=O"
f

// param item: "OCCNCc1cccc(OCc2ccccc2Cl)c1" ; yields the recorded call
f

// outcome(item) with item = CC1CN/C(=C\C(=O)c2ccc(Br)cc2)C(=O)N1 (configuration not stated)
t
